Value source: patent US6020343A

# target of assay: CHO [hCOX-1] (Homo sapiens, UniProt P23219)
# Construct: expressed in transfected cells; host or cells: Chinese hamster ovary (CHO) cells, vector pCDNAIII
# Sequence (P23219 24-599): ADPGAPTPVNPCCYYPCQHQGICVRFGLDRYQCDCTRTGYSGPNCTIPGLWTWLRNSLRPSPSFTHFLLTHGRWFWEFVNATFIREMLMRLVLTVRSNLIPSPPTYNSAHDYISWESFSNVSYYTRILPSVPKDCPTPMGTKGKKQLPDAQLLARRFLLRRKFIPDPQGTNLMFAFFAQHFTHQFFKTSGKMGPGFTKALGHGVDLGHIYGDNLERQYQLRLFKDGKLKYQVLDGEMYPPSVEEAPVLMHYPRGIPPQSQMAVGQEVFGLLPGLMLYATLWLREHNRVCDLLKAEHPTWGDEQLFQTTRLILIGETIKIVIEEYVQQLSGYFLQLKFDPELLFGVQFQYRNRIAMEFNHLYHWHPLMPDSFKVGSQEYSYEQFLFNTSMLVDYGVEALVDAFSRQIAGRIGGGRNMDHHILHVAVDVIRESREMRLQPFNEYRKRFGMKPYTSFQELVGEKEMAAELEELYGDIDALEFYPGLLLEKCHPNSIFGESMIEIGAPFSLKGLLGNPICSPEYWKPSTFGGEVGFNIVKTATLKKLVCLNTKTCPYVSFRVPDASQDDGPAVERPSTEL
# protocol details: Whole Cell Assay for COX-1 using CHO Transfected Cell Lines
# Type: cell-based
# condition set: CHO [hCOX-1] cells, 0.5 μM AA, PGE2; Table III
pIC50: −log10 of the molar value.
experimental endpoint: pIC50

>>> reading("CC1(C)OC(=O)C(C(=O)c2ccccc2)=C1c1ccc(S(C)(=O)=O)cc1 [Example 19b]")
"< 4.30"

###

# target of assay: COX-1 (Homo sapiens, UniProt P23219)
# protocol details: Human Whole Blood Assay, COX-1 (Clotting-induced TxB2 Production)
# Format: cell-based
# Design: endogenous in cells
# condition set: clotting-induced TxB2, 1 hour, Table III, read-out: COX-1 (IC50) HWB
pIC50: −log10 of the molar value.
Measured pIC50 of individual entries
experimental endpoint: pIC50

>>> reading("CC1(C)OC(=O)C(Oc2cccc(F)c2)=C1c1ccc(S(C)(=O)=O)cc1 [Example 2]")
4.64
>>> reading("CC1(C)OC(=O)C(Oc2ccc(Cl)cc2)=C1c1ccc(S(C)(=O)=O)cc1 [Example 6]")
5.74
